src = PubChem BioAssay AID1645865

- assayed_system: Ubiquitin carboxyl-terminal hydrolase 30 (Homo sapiens)
- experiment_summary: inhibitors of ubiquitin-specific protease 30 deubiquitylating enzyme, concentration dependence, in vitro biochemical, validation of primary hits (AID 1645865)
- run_parameters: purified USP30, Ub-rhodamine cleavage, fluorescence, 2 h
Calls of active or inactive are those of the source.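 Rule for the calls: active = maximal inhibition of the USP30 enzyme reaching 30% or more across the dose series; inactive = the rest.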
Classes used: Y for active, N for inactive

compound=Cc1cccc(NC(=O)c2nc(N3CCSCC3)c3cnn(C)c3n2)c1 assayed_system="Ubiquitin carboxyl-terminal hydrolase 30 (Homo sapiens)" category=N
compound="CC[C@@]1(O)C[C@H](OC2CC(N(C)C)C(OC3CC(O)C(OC4CCC(=O)C(C)O4)C(C)O3)C(C)O2)c2c(cc3c(c2O)C(=O)c2c(O)ccc(O)c2C3=O)[C@H]1C(=O)OC (some centres undefined)" assayed_system="Ubiquitin carboxyl-terminal hydrolase 30 (Homo sapiens)" category=N
compound=Cc1ccc(Nc2nc(O)c(CC(=O)Nc3ccccc3C)s2)cc1C assayed_system="Ubiquitin carboxyl-terminal hydrolase 30 (Homo sapiens)" category=Y
compound=CCOc1ccc(-c2ccc3nnc(SCC(=O)Nc4cccc(C(C)=O)c4)n3n2)cc1 assayed_system="Ubiquitin carboxyl-terminal hydrolase 30 (Homo sapiens)" category=Y

###

- assayed_system: Ubiquitin carboxyl-terminal hydrolase 30 (Homo sapiens)
- experiment_summary: inhibitors of ubiquitin-specific protease 30 deubiquitylating enzyme, concentration dependence, in vitro biochemical, validation of primary hits (AID 1645865)
- run_parameters: purified USP30, Ub-rhodamine cleavage, fluorescence, 2 h
Calls of active or inactive are those of the source.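 How the source made its calls: active means maximal inhibition of the USP30 enzyme reaching 30% or more across the dose series; inactive means the rest.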
Possible outcomes: active, inactive

compound=O=C(c1nnn(Cc2ccc(Cl)cc2)c1-n1cccc1)N1CCCC1 category=inactive
compound=Oc1ccc(-c2nc3cnccn3c2NCCc2ccccc2)c(O)c1 category=inactive
compound="CC(OC(=O)c1ccc2c(c1)OCCO2)C(=O)NCC1CCCCC1 (stereo unspecified)" category=active
compound=O=C(COc1ncnc2ccccc12)Nc1ccc2c(c1)OC1(CCCC1)O2 category=active
compound=COc1cccc(NC(=O)CSc2nnc(-c3cc4cccc(OC)c4o3)n2C)c1 category=active
compound=Cn1c2ccccc2c(=O)c2c(=O)n(Cc3ccccc3)c(-c3ccccc3F)nc21 category=active
compound=Nc1ncnc(SCc2ccc(Cl)cc2)n1 category=active
compound=COc1cccc(N2CCN(c3ccc4nnc(CCC(=O)N5CCc6ccccc6C5)n4n3)CC2)c1 category=active
compound=Cc1ccccc1NC(=O)Cn1c(N2CCOCC2)nc2cc(C)n(C)c2c1=O category=active
compound="COc1cccc(OCCCn2c(C(C)NC(=O)c3ccco3)nc3ccccc32)c1 (stereo unspecified)" category=active
compound=COC(=O)c1ccc(NC(=O)CSc2nnc(-c3ccc(O)cc3)n2Cc2ccco2)cc1 category=active
compound=COc1cccc(NC(=O)Cc2sc(Nc3cc(C)cc(C)c3)nc2O)c1 category=active
compound=COc1ccc(C(=O)Nc2cc(F)c3nc(N4CCOCC4)ccc3c2)c(OC)c1 category=inactive
compound=COc1ccc(NC(=O)c2nnc(C(=O)NCCN3CCCCCC3)s2)cc1 category=active
compound=Cc1cc(O)c(=O)cc2c1C[C@H]1CC(C)(C)/C=C/C[C@@]3(C)Oc4cc(=O)c(O)cc(C)c4C[C@@H]3C[C@H](O)[C@]1(C)O2 category=inactive
compound=N#Cc1cccc(NC(=O)Cn2cccc(-c3nc(-c4ccccc4)no3)c2=O)c1 category=inactive
compound=CN1CCN(c2ccc3nc(-c4ccccc4)c(-c4ccccc4)nc3c2)CC1 category=inactive
compound=Cc1ccc(C2=Nc3ccccc3N(CC(=O)Nc3cccc(C)c3C)C(=O)C2)cc1C category=active
compound=Clc1cncc(Oc2nc(-c3cccnc3)nc3ccccc23)c1 category=active
compound="CC(C)N1CC2CN(C(=O)c3ccccc3)CCN2Cc2ccccc21 (stereo unspecified)" category=inactive
compound=CCc1ccc(NC(=O)Cc2nnc(-c3ccc4ncccc4c3)o2)cc1 category=active

###

- assayed_system: Ubiquitin carboxyl-terminal hydrolase 30 (Homo sapiens)
- experiment_summary: inhibitors of ubiquitin-specific protease 30 deubiquitylating enzyme, concentration dependence, in vitro biochemical, validation of primary hits (AID 1645865)
- run_parameters: purified USP30, Ub-rhodamine cleavage, fluorescence, 2 h
The source made the active and inactive calls.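 How the source made its calls: active means maximal inhibition of the USP30 enzyme reaching 30% or more across the dose series; inactive means the rest.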
Possible outcomes: 1 (yes) = active, 0 (no) = inactive

compound=Cc1sc(-c2ccc(Cl)nc2)nc1OC(=O)c1ccc(F)cc1F category="1 (yes)"
compound="CC1CCCN1C(=O)c1ccn(-c2ccc3ccc(-c4cccnc4)cn23)n1 (stereo unspecified)" category="0 (no)"
compound=CN1C(=O)[C@@]23C[C@]4([C@@]56C[C@]78SS[C@](CO)(C(=O)N7[C@@H]5Nc5ccccc56)N(C)C8=O)c5ccccc5N[C@@H]4N2C(=O)[C@]1(CO)SS3 category="1 (yes)"
compound=Cc1cc(SCc2ncon2)c(C)cc1Cl category="0 (no)"
compound=COc1ccc(C(C)=O)cc1CC(=O)Nc1nc2ccccc2[nH]1 category="0 (no)"
compound=N#Cc1ccccc1Cn1c(=O)n(CCCCC(=O)NCCc2ccccc2)c(=O)c2ccccc21 category="1 (yes)"
compound=O=C(Nc1cc(Cl)cc(Cl)c1)c1csnn1 category="1 (yes)"
compound=CC(=O)c1ccc(NC(=O)C2CCN(c3cncnc3N3CCCC3)CC2)cc1 category="0 (no)"
compound=C[C@H](NC(=O)Cc1ccccc1F)c1nc2cc(-c3ccccc3F)ncn2n1 category="0 (no)"
compound="CCC(C)c1ccc(-c2csc(Cn3c(CN4CCN(C)CC4)nc4ccccc4c3=O)n2)cc1 (stereo unspecified)" category="1 (yes)"
compound=Cn1c(=O)sc2cc(NC(=O)c3ccc(Br)cc3)ccc21 category="1 (yes)"
compound=COc1ccccc1NC(=O)Cn1cc(C(=O)c2ccc(C)cc2)c(=O)c2cc(Cl)ccc21 category="1 (yes)"
compound=O=C(NCc1ccc(Br)cc1)c1ccc(-c2cccnc2)nc1 category="1 (yes)"
compound=CCOc1ccc(NC(=O)Cn2c(=O)n(CCC(=O)NCc3ccco3)c(=O)c3ccccc32)cc1 category="1 (yes)"
compound="CC(OC(=O)CNC(=O)c1ccc(Br)cc1)C(=O)Nc1ccc2c(c1)OCCO2 (stereo unspecified)" category="1 (yes)"
compound=CCOc1ccc(CCNC(=O)CCC(=O)Nc2ccc3nc(N4CCN(C)CC4)cc(C)c3c2)cc1OCC category="0 (no)"
compound=O=C(COc1ccc2c(-c3ccccc3)cc(=O)oc2c1)Nc1cccnc1 category="1 (yes)"
compound="CCCCN1CC(C(=O)Nc2ccc(C(=O)Nc3ccc(Cl)cc3)cc2)CC1=O (stereo unspecified)" category="1 (yes)"
compound=CCn1cc(-c2nc(-c3ccccc3)no2)c(=O)c2cc(F)ccc21 category="1 (yes)"
compound=O=C(Cn1c(=O)n(CCC(=O)N2CC=C(c3ccccc3)CC2)c(=O)c2ccccc21)NCc1ccco1 category="0 (no)"
compound=N#Cc1ccccc1Cn1c(=O)n(Cc2ccco2)c(=O)c2ccccc21 category="0 (no)"

###

- assayed_system: Ubiquitin carboxyl-terminal hydrolase 30 (Homo sapiens) (UniProt Q70CQ3)
- Sequence (Q70CQ3 whole entry, looked up): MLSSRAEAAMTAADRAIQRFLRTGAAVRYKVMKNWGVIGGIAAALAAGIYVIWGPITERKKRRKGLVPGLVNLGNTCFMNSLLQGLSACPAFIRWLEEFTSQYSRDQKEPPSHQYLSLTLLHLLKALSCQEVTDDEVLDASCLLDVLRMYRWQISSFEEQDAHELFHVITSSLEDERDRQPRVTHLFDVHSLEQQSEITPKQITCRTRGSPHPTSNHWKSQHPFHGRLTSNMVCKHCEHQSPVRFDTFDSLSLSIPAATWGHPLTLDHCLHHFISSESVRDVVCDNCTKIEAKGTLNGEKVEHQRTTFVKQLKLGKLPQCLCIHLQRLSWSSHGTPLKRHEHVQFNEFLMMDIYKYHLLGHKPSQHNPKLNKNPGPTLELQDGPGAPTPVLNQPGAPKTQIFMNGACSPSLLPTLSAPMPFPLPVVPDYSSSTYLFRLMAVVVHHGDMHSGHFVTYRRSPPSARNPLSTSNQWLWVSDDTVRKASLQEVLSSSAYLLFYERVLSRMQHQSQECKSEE
- experiment_summary: inhibitors of ubiquitin-specific protease 30 deubiquitylating enzyme, concentration dependence, in vitro biochemical, validation of primary hits (AID 1645865)
- run_parameters: purified USP30, Ub-rhodamine cleavage, fluorescence, 2 h
Calls of active or inactive are those of the source.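 How the source made its calls: active means maximal inhibition of the USP30 enzyme reaching 30% or more across the dose series; inactive means the rest.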
Outcome codes: active, inactive

molecule=C[C@@H]1O[C@@H](O[C@H]2[C@H](O[C@H]3[C@H](O[C@H]4CC[C@@]5(C)[C@@H](CC[C@]6(C)[C@@H]5CC=C5[C@@H]7CC(C)(C)CC(=O)[C@]7(C)CC[C@]56C)[C@@]4(C)CO)O[C@H](C(=O)O)[C@@H](O)[C@@H]3O)OC[C@@H](O)[C@@H]2O)[C@H](O)[C@H](O)[C@H]1O category=inactive
molecule=CSc1nc2ncn(CC(=O)Nc3cccc(Cl)c3)c(=O)c2s1 category=active
molecule=c1ccc(-n2nnc(-c3noc(-c4ccccn4)n3)c2-c2ccncc2)cc1 category=active
molecule="O=C(c1ccc2cc[nH]c2c1)N1CCC(Nc2cccnc2)C1 (configuration not stated)" category=inactive
molecule="CC(Sc1n[nH]c2nc3ccccc3n12)C(=O)Nc1ccc2c(c1)OCCO2 (configuration not stated)" category=inactive
molecule="CC[C@H](C)[C@H](NC(=O)[C@H]([C@@H](C)CC)N(C)C(C)=O)C(=O)N[C@H](C(=O)N[C@@H](CC(C)C)C(=O)C1(C)CO1)[C@@H](C)O (some centres not stated)" category=inactive
molecule=Cn1c(SCc2ccccc2)nnc1-c1csc(-c2ccccc2)n1 category=active

###

- assayed_system: Ubiquitin carboxyl-terminal hydrolase 30 (Homo sapiens)
- experiment_summary: inhibitors of ubiquitin-specific protease 30 deubiquitylating enzyme, concentration dependence, in vitro biochemical, validation of primary hits (AID 1645865)
- run_parameters: purified USP30, Ub-rhodamine cleavage, fluorescence, 2 h
Calls of active or inactive are those of the source.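 The calls were made as follows: active = maximal inhibition of the USP30 enzyme reaching 30% or more across the dose series; inactive = the rest.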
Outcomes: active, inactive

molecule="O=C1CC(C(=O)Nc2ccccc2F)n2nc(-c3ccccc3)cc2N1 (stereo not given)" assayed_system="Ubiquitin carboxyl-terminal hydrolase 30 (Homo sapiens)" category=active
molecule=O=C(c1cc(-c2ccc(Cl)cc2)n[nH]1)N1CCN(C(=O)c2ccco2)CC1 assayed_system="Ubiquitin carboxyl-terminal hydrolase 30 (Homo sapiens)" category=active
molecule=Cc1sc(NC(=O)/C=C/c2ccco2)nc1-c1ccccc1 assayed_system="Ubiquitin carboxyl-terminal hydrolase 30 (Homo sapiens)" category=inactive
molecule=Cc1ccc(NC(=O)CSc2nc3c(cc2C#N)C(=O)CCC3)cc1 assayed_system="Ubiquitin carboxyl-terminal hydrolase 30 (Homo sapiens)" category=active
molecule="O=C1c2c(O)cccc2C2(Oc3cccc4cccc(c34)O2)C2OC12 (stereo not given)" assayed_system="Ubiquitin carboxyl-terminal hydrolase 30 (Homo sapiens)" category=active
molecule=O=C(c1cc(Cl)ccc1Cl)N1CCN(c2ccc3nnc(-c4ccco4)n3n2)CC1 assayed_system="Ubiquitin carboxyl-terminal hydrolase 30 (Homo sapiens)" category=inactive
molecule=COc1ccccc1C(=O)N1CCC(S(=O)(=O)c2ccc(-c3ccco3)cc2)CC1 assayed_system="Ubiquitin carboxyl-terminal hydrolase 30 (Homo sapiens)" category=inactive
molecule=O=C(Nc1ccc2c(c1)OCCO2)C1CCN(C(=O)c2cc(-c3cccnc3)n[nH]2)CC1 assayed_system="Ubiquitin carboxyl-terminal hydrolase 30 (Homo sapiens)" category=inactive
molecule=C/C=C1/C2=CCCN3C(=O)O[C@H]([C@H]1O)[C@H]23 assayed_system="Ubiquitin carboxyl-terminal hydrolase 30 (Homo sapiens)" category=inactive
molecule=COC1=CC(=O)c2c(O)c(C)c(CC(C)=O)c(O)c2C1=O assayed_system="Ubiquitin carboxyl-terminal hydrolase 30 (Homo sapiens)" category=inactive
